B1: H2-Kb / H5 (parent)
chain 1: GEQVEQRPPHLSVREGDSAVIICTYTDPNSYYFFWYKQEPGAGLQLLMKVFSSTEINEGQGFTVLLNKKDKQLSLNLTAAHPGDSAVYFCAVSNYGSSGNKLIFGIGTLLSVKP
chain 2: EAAVTQSPRNKVAVTGGKVTLSCNQTNNHNNMYWYRQDTGHGLRLIHYSYGAGSTEKGDIPDGYKASRPSQENFSLILELATPSQTSVYFCASGDRERDTQYFGPGTRLLVL
chain 3: not shown
chain 4: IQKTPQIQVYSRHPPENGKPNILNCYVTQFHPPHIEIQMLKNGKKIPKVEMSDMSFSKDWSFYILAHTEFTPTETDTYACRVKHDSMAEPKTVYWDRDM
chain 5: SIINFEKL

Variants of: B1
Assay: % of reporter cells activated (NFAT-GFP), raw; note: test concentration or dose not given here
Details: with H5; scale: % of reporter cells activated
experimental readout: ratio to parent

Known ratio to parent results, listed for orientation:
Item: chain 5 K7H | ratio to parent: 0.806

Sample chain 5 S1H ; ratio to parent observed: 0.474

The reported value for chain 5 F5E in terms of ratio to parent is 0.352

# ratio to parent of chain 5 E6T = 0.459

[P] chain 5 F5A
[Q] chain 5 I3T
[R] chain 5 K7Q
Exercise: Sort entries by ratio to parent from minimum to maximum value. Dear reader, please state the labels in the requested order.
Key: Q, R, P
(Q: 0.352, R: 0.592, P: 0.923)

[P] chain 5 K7R
[Q] chain 5 N4G
[R] chain 5 K7T
Exercise: Arrange by ratio to parent, high to low. Order the labels as requested and list them.
Key: R, P, Q

[P] chain 5 K7G
[Q] chain 5 I3N
Exercise: Compare the recorded ratio to parent of P and Q ; state which is larger. Provide the label of your selected option as the answer.
Key: P
(P: 0.811, Q: 0.367)
